B1: C20orf112 (parent)
chain: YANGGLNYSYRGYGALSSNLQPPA

- Variants of: B1
- test: protein stability index of a GFP-peptide fusion (GPS, HEK-293T) (PSI 1-6); higher = more stable;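 also: lentivirally expressed fusions sorted by FACS into six bins by GFP to DsRed ratio, PSI derived from sequencing read proportions per bin multiplied by bin number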
- condition-context: c terminus: a fixed tail appended
experimental-readout: protein stability index
Reply briefly: the number, and no unit.

For orientation, consider the following solved cases.
{"mutant-name": "Q21T", "protein stability index": 2.61}
{"mutant-name": "S18A", "protein stability index": 2.15}
{"mutant-name": "A2F", "protein stability index": 2.07}
{"mutant-name": "N3K", "protein stability index": 1.7}
{"mutant-name": "Y13N", "protein stability index": 1.84}

Could you please provide reported protein stability index for S9T ? Thanks!
1.82

Could you please provide reported protein stability index for A2H ? Thanks!
1.62

Could you please provide reported protein stability index for G12W ? Thanks!
2.08

Could you please provide reported protein stability index for L16C ? Thanks!
1.64

Could you please provide reported protein stability index for P23I ? Thanks!
2.09

Could you please provide reported protein stability index for G14W ? Thanks!
3.05
